// provenance: paper PMC11062922

Test system: PKN2
Parameters: species or system human, MV4-11 + K-562 + COLO205 + SK-N-BE2 + OVCAR-8
condition_notes: read-out: apparent Kd; compound concentrations:100 nM and 1000 nM (sheet 'Samples'); n = 1
Please provide measured potency estimated from few doses for the entries that follow.
Number first, unit second: that is the form wanted.

The compound CCn1c(-c2nonc2N)nc2cncc(CNC3CCNCC3)c21 [SB-747651A] showed potency estimated from few doses equal to 94.5 nM

The compound C[C@@H]1CCNC(=O)c2cc3ccc(C(=O)Nc4nc5ccccc5n4CCCN(C)C)cc3n21 [BI00645435] showed potency estimated from few doses equal to 1760 nM

The compound CCn1c(-c2nonc2N)nc2c(C#CC(C)(C)O)nc(OCCN)cc21.CCn1c(-c2nonc2N)nc2c(C#CC(C)(C)O)nc(OCCN)cc21.Cl.Cl [GSK902056A] showed potency estimated from few doses equal to 581 nM

The compound NCCNS(=O)(=O)c1ccc(-c2ccnc3[nH]ccc23)cc1 [GSK977617A] showed potency estimated from few doses equal to 1190 nM

The compound CCn1c(-c2nonc2N)nc2cncc(C(=O)N3CCNCC3)c21.Cl [SB-759335-B] showed potency estimated from few doses equal to 119 nM

The compound Nc1c(C(=O)c2ccccc2)cnn1-c1ccc(F)cc1 [RO1151246-000] showed potency estimated from few doses equal to 1910 nM

The compound CCn1c(-c2nonc2N)nc2c(C#CC(C)(C)O)nc(O[C@@H](CN)c3ccccc3)cc21.O=C(O)C(F)(F)F [GSK1007102B] showed potency estimated from few doses equal to 390 nM

The compound CCn1c(-c2nonc2N)nc2cnc(Oc3cccc(NC(=O)c4ccc(OCCN5CCOCC5)cc4)c3)cc21.Cl [GSK269962B] showed potency estimated from few doses equal to 1850 nM

The compound CCn1c(-c2nonc2N)nc2cncc(C(=O)N3CC[C@H](N)C3)c21.Cl [SB-772077-B] showed potency estimated from few doses equal to 73.8 nM

The compound CCn1c(-c2nonc2N)nc2cncc(Br)c21 [SB-738004] showed potency estimated from few doses equal to 122 nM

The compound CCn1c(-c2nonc2N)nc2cnc(Oc3cccc(NC(=O)c4ccc(N(C)C)cc4)c3)cc21 [GSK248233A] showed potency estimated from few doses equal to 1780 nM

The compound COc1ccc(O)c(C(=O)c2ccc(C(=O)O[C@@H]3CCCNC[C@H]3NC(=O)c3ccncc3)cc2)c1F.Cl [RO0480500-002] showed potency estimated from few doses equal to 241 nM

The compound Cl.Cl.NC[C@H](CC1CCCCC1)NC(=O)c1cc(Br)c(-c2ccnc3[nH]ccc23)s1.NC[C@H](CC1CCCCC1)NC(=O)c1cc(Br)c(-c2ccnc3[nH]ccc23)s1 [GSK1581427A] showed potency estimated from few doses equal to 2310 nM
